# Tested on: SF-539
# procedureText: NCI tumour cell line growth inhibition, 48 h
Active and inactive are the calls of the source. Rule as the data show it: active = GI50 up to about 1.1 µM and inactive = higher.
readoutName: GI50

>>> reading("CC(=O)NC1C(OCc2ccccc2)OC(COC(=O)CCCCCNc2ccc([N+](=O)[O-])c3[nH]c4ccc(O)cc4c(=O)c23)C(O)C1OC(C)C(=O)N[C@@H](C)C(=O)N[C@H](CCC(=O)OCc1ccccc1)C(N)=O (stereo partly specified)")
"3.4 µM (inactive)"
>>> reading("Cc1cc(=O)[nH]c(-n2[nH]c3c(c2=O)CCCC3)n1")
"88.5 µM (inactive)"
>>> reading("O=C1c2ccccc2-c2oc(=O)c3ccccc3c21")
"> 100 µM (inactive)"
>>> reading("COC(=O)/C=C\\C(C#N)(C#N)/N=C/c1ccc(C)s1")
"4.63 µM (inactive)"
>>> reading("CCOC(=O)c1cc(C2=CCNC2=O)c(-c2cc(C)no2)[nH]1")
"> 100 µM (inactive)"
>>> reading("Cc1ccc2c(c1C)CC1(Cc3c(C)ccc(C)c3C1=O)C2=O (stereo unspecified)")
"> 100 µM (inactive)"
>>> reading("COC1C(OC(=S)Nc2ccccc2)c2ccccc2N1C(C)=O (stereo unspecified)")
"> 100 µM (inactive)"
>>> reading("Cc1cc(C)n(CN(Cn2nc(C)cc2C)c2ccc(N(Cn3nc(C)cc3C)Cn3nc(C)cc3C)cc2)n1")
"18.1 µM (inactive)"
>>> reading("CSc1nnnc2ccccc12")
"> 100 µM (inactive)"
>>> reading("CC1(C)C2CCC1(C)C(N/C(=C(/C(Cl)=C(Cl)Cl)[N+](=O)[O-])n1nnc3ccccc31)C2 (stereo unspecified)")
"33.8 µM (inactive)"
>>> reading("Cc1[nH]n(-c2ccc(S(=O)(=O)O)cc2)c(=O)c1/N=N/c1ccccc1")
"> 100 µM (inactive)"

----------
# Test system: MOLT-4
# procedureText: NCI tumour cell line growth inhibition, 48 h
Calls of active or inactive are those of the source. No stated cut-off is given here; in the data, active = GI50 up to about 1.1 µM and inactive = higher.
Labels: active, inactive

>>> cat("CC(=O)Nc1ccc(S(=O)(=O)Nc2nnc(S(N)(=O)=O)s2)cc1")
"inactive"
>>> cat("Nc1cc(-c2ccccc2)nn1-c1nsc2ccccc12")
"inactive"
>>> cat("O=c1c2ncn(C3CCCCO3)c2n(-c2ccccc2)c(=S)n1-c1ccccc1 (stereo not given)")
"inactive"
>>> cat("COc1ccc(C=C2C(C)=NN(c3cccc(Cl)c3)C23C(Cl)C(=O)N3c2nc3ccccc3s2)cc1 (stereo not given)")
"inactive"
>>> cat("c1ccc(C2=NOC3(c4ccccc4)SC4CCCCC4CN23)cc1 (stereo not given)")
"inactive"
>>> cat("CCOC(=O)NC(C(F)(F)F)(C(F)(F)F)P(=O)(OCC)OCC")
"inactive"
>>> cat("CCCCCCCCCCCCCC(=O)O[C@H]1CC[C@H](NC(=O)[C@H](OC)[C@H](O)[C@@H](O)[C@H](O)/C=C/C(C)C)C(=O)NC1 [BENGAMIDE A]")
"active"
>>> cat("CCOC(=O)C1Cc2ccc(C)cc2C1=O (stereo not given)")
"inactive"
>>> cat("Cc1cc(OCc2nnc3n2N=C(c2cc(F)c(Cl)cc2Cl)/C(=C/c2ccc(Cl)cc2)S3)ccc1Cl")
"active"
>>> cat("C=CCOc1ccc(C2(c3ccc(OCC=C)cc3)C(=O)Nc3ccccc32)cc1")
"inactive"

Origin of measurements: ChEMBL document CHEMBL1201862
